molecular target: R172K IDH2 (Homo sapiens, UniProt P48735, R172K); construct: made in house; host or cells: Sf21 insect cells (cell pellets prepared at Evotec); test: Absorbance assay, variant activity in the presence of equimolar 2OG (inhibition screen); assay type: biochemical; details: 1.0 mM 2OG and 1.0 mM test compound, 0.03 μM R172K IDH2, 50 μM NADPH
Sequence (P48735 40-452 R172K): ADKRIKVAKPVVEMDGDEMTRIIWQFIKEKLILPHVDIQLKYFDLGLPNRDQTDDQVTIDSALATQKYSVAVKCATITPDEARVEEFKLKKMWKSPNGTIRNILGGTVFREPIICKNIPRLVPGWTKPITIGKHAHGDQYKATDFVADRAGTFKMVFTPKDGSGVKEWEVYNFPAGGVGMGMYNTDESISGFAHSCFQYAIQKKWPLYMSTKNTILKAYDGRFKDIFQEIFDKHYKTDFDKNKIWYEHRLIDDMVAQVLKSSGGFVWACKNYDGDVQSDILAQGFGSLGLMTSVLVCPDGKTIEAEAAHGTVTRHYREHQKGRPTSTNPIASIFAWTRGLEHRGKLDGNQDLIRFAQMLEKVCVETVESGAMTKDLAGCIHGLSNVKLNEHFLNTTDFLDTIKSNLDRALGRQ
Endpoint: activity [%] (%-substrate conversion after 20 min incubation)

A selection of reference data follows.
O=C(O)CC(CCCc1ccccc1)C(=O)C(=O)O (racemic)	93 ± 1%
NC(=O)C(=O)O	102 ± 7%
O=C(O)C(=O)CS	54 ± 1%
O=C(O)CC(Cc1ccccc1)C(=O)C(=O)O (stereo not drawn)	114 ± 4%
CCC(CC(=O)C(=O)O)C(=O)O (racemic)	112 ± 13%

Now take the following molecule into account.
For R172K IDH2 (Homo sapiens, UniProt P48735, R172K), provide activity [%] (%-substrate conversion after 20 min incubation) of CC1(C)c2ccccc2-c2ccc(CC(CC(=O)O)C(=O)C(=O)O)cc21 (racemic) please.
< 10%

The origin of these recorded values is paper PMC9939733.
